All values here come from patent US20260258115A1.

MEASURED TARGET: T1, RSV prefusion F (preF), subtype B (respiratory syncytial virus subtype B)
T1 construct: also called Prefusion subtype B
ASSAY NAME: BLI, IgG
Assignment: determine reported pKd for the given binders.
# log scale: pKd equals minus log10 of the concentration in mol/L

What does the record list as pKd for ADI-22780 (antibody, V domains shown, full-length IgG) VH: EVQLVESGPTLVKPTQTLTLTCTFSGFSLSTSGVGVGWIRQPPGKALEWLALIYWDDDKRYSPSLKSRLTITKDTSKNQVVLTMTNMDPVDTATYYCAHRGRQYSYGYYYFDYWGQGTLVTVSS VL: QSVLIQPASVSGSPGQSITISCTGTSSDVGGYNFVSWYQQHPGKAPKLMIYDVSNRPSGVSNRFSGSKSGNTASLTISGLQAEDEADYYCSSYTSSTLDVFGTGTKVTVL ? 7.62

I am curious: what pKd value has been reported for ADI-25556 (antibody, V domains shown, full-length IgG; also called Ab 450) VH: QVQLVQSGGGLVKPGGSLRLSCAASGFTFSSYSMNWVRQAPGKGLEWVSSISSSSSYIYYADSVKGRFTISRDNAKNSLYLQMNSLRAEDTAVYYCARQRGGIAVAGTYFDLWGRGTLVTVSS VL: QSVLTQPPSVSGAPGQRVTISCTGSSSNIGAGYDVHWYQQLPGTAPKLLIYGNSNRPSGVPDRFSGSKSGTSASLAITGLQAEDEADYYCQSYDSTVVFGGGTKVTVL ? 7.38
